Numbers sourced from PubChem BioAssay (NCI).

Listing of entries alongside the reported growth.
tested on: OVCAR-5 ovarian; assay: NCI-60 one-dose screen, 48 h (100 = growth as untreated, 0 = no growth, -100 = all killed); conditions: 10 µM unless noted
The panel holds about 83,000 compounds, 20% with a hit somewhere; the sample as a whole holds those more often.
Quantity Kind: growth (%)

Molecule: Clc1ccc2c(NCCCNC3CCCCC3)ccnc2c1
Reading Unit: %
Obs Value: 114
//
Molecule: C[C@@H]1C(=O)[C@@H]2C[C@@H](O)[C@@H](O)C[C@]2(C)[C@H]2CC[C@@]3(C)C(=C12)CC[C@@H]3[C@@](C)(O)[C@H](O)CCC(C)(C)O
Reading Unit: %
Obs Value: 112
//
Molecule: O=C1c2ccccc2C(=O)c2c1oc1c2c(=O)[nH]c2ccc(Cl)cc21
Reading Unit: %
Obs Value: 52.7
//
Molecule: Nc1c(C(=O)Nc2ccccn2)sc2nc3c(cc12)CCCCC3
Reading Unit: %
Obs Value: 39.6
//
Molecule: COc1cc(/C=C/C(=O)/C=C/c2cc3ccc(Cl)cc3n(Cc3ccccc3)c2=O)ccc1O
Reading Unit: %
Obs Value: 19.4
//
Molecule: C[C@H](Oc1cc(-c2cnn(C3CCNCC3)c2)cnc1N)c1c(Cl)ccc(F)c1Cl
Reading Unit: %
Obs Value: 94.3
//
Molecule: CC(=O)c1ccc(NC(=O)CSc2nnc(-c3cc(-c4ccc(C)cc4)nc4ccccc34)o2)cc1
Reading Unit: %
Obs Value: 101
//
Molecule: CC[C@H](Nc1ncnc2nc[nH]c12)c1nc2cccc(CC(=O)c3ccc(C(=O)NO)cc3)c2c(=O)n1-c1ccccc1
Reading Unit: %
Obs Value: 97.9
//
Molecule: C/C(=N\NC(=O)c1ccncc1)c1ccc(N)cc1
Reading Unit: %
Obs Value: 107
//
Molecule: COc1cc(NC(=O)c2cc(O)c(C/C=C(\C)CCC=C(C)C)c(O)c2)cc2c1O[C@]1(C)CC[C@@H](O)C(C)(C)[C@H]1C2
Reading Unit: %
Obs Value: 44.9
